molecular target: ADC-33 (Acinetobacter baumannii)
Quick rule for you: Ki under 3 µM gets met, anything else gets not met.

INSERT INTO assay_data (entry_smiles, answer_label) VALUES
  ('C[C@@H](NS(=O)(=O)Cc1ccccc1)B(O)O', 'not met'),
  ('O=C(O)c1cccc(CS(=O)(=O)NCB(O)O)c1', 'met'),
  ('CC[C@@H](NS(=O)(=O)Cc1ccccc1)B(O)O', 'not met'),
  ('C[C@@H](NS(=O)(=O)Cc1cccc(C(=O)O)c1)B(O)O', 'met');

Threshold test, Ki < 3 µM: CC[C@@H](NS(=O)(=O)Cc1cccc(C(=O)O)c1)B(O)O
not met

Criterion: Ki strictly below 3 µM. Is it met by CC[C@H](NS(=O)(=O)Cc1cccc(C(=O)O)c1)B(O)O ?
not met

====

biological target: OXA-24/40 (Acinetobacter baumannii); construct: made in house; test: Ki determination, competition assay with nitrocefin (NCF) as substrate; assay type: biochemical; settings: corrected for NCF affinity; 5 min pre-incubation; pH 7.4, 25 mM NaHCO3; read-out: Ki OXA-24/40
Parameter Ki: see the listing below.
Give your result in µM as a bare value.

INSERT INTO assay_data (compound, quantity_measured, measured_number) VALUES
  ('C[C@@H](NS(=O)(=O)Cc1ccccc1)B(O)O [6a]', 'Ki', 630);

Documented Ki of CC[C@@H](NS(=O)(=O)Cc1cccc(C(=O)O)c1)B(O)O [6d] : 320

====

Listed here are compounds together with their documented pKi.
Target: OXA-24/40 (Acinetobacter baumannii, UniProt Q8RLA6)
Construct: made in house
Sequence (Q8RLA6 22-275): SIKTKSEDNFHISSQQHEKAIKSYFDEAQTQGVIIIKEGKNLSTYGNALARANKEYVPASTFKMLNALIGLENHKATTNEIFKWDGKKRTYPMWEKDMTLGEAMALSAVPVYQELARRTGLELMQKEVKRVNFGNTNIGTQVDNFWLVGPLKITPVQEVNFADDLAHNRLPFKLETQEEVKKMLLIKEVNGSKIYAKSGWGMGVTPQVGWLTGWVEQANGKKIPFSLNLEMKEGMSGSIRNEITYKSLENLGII
Test: Ki determination, competition assay with nitrocefin (NCF) as substrate
Format: biochemical
Procedure: The affinity of CR167 for the two different β-lactamases was measured in competition assays using nitrocefin (NCF) as the indicator substrate (Table 1). […] Ki values were determined by using nitrocefin as a reporter substrate and treating the compounds as competitive inhibitors. Steady-state kinetic parameters were determined by combining pure enzyme with nitrocefin in 50 mM NaH2PO4; 25 mM NaHCO3, pH 7.4 (for OXA-24/40); or 50 mM NaH2PO4, pH 7.4 (for ADC-33), at room temperature. […]
Friendly reminder that pKi comes from taking -log10 of the concentration in mol/L.

INSERT INTO assay_data (entry_smiles, quantity_measured, measured_number) VALUES
  ('O=C(O)c1cccc(CS(=O)(=O)NCB(O)O)c1', 'pKi', 5.36);

Switching to the query record.
The compound C[C@@H](NS(=O)(=O)Cc1cccc(C(=O)O)c1)B(O)O showed pKi equal to 5.28
